Tested on: biotinyl-Phe-oxazolone
Assay: self-aminoacylation, catalytic enhancement (BFO) (fold over background); higher = more active; k-Seq, kA / k0A0; sequences stand for … in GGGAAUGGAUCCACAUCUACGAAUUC…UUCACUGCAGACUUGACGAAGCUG
This sample holds only a part of the variants without activity.
recordedEndpoint: self-aminoacylation

itemsequence="AUUACCCUGGUCAUCGACUGU [Fam2.1 aminoacylation ribozyme variant]" recordedendpoint=self-aminoacylation experimentalvalue=0.377
itemsequence="AAGCUUGCGAAUAGUCGCAAG [Fam3.1 aminoacylation ribozyme variant]" recordedendpoint=self-aminoacylation experimentalvalue=2.7
itemsequence="CCAUACUUCAAGCAAUCGGAC [Fam1B.1 aminoacylation ribozyme variant]" recordedendpoint=self-aminoacylation experimentalvalue=1.21
itemsequence="GUUACCCUGGUUAUCGAGUGA [Fam2.1 aminoacylation ribozyme variant]" recordedendpoint=self-aminoacylation experimentalvalue=57.6
itemsequence="AUUCAGCUAGGUCGUCGGGUG [Fam2.2 aminoacylation ribozyme variant]" recordedendpoint=self-aminoacylation experimentalvalue=13.1
itemsequence="AGGUUUGCUAUUAGUCGCAAG [Fam3.1 aminoacylation ribozyme variant]" recordedendpoint=self-aminoacylation experimentalvalue=3.21
itemsequence="AUUACUCUGCUCAUCGAGUGA [Fam2.1 aminoacylation ribozyme variant]" recordedendpoint=self-aminoacylation experimentalvalue=2.12
itemsequence="CCACUUCAAACAAUCGGUGUG [Fam1A.1 aminoacylation ribozyme variant]" recordedendpoint=self-aminoacylation experimentalvalue=12.5
itemsequence="UCACACUUCACGCAAUCGGUC [Fam1B.1 aminoacylation ribozyme variant]" recordedendpoint=self-aminoacylation experimentalvalue=0.767

* * *

Tested on: biotinyl-Ile-oxazolone
Assay: self-aminoacylation, catalytic enhancement (BIO) (fold over background); higher = more active; k-Seq, kA / k0A0; sequences stand for … in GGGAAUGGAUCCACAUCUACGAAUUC…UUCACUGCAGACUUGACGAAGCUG
Fewer inactive variants are shown than the library holds.
recordedEndpoint: self-aminoacylation

itemsequence="AAGUUUGCAUAUAGUCGCAAG [Fam3.1 aminoacylation ribozyme variant]" recordedendpoint=self-aminoacylation experimentalvalue=0.762
itemsequence="CUACCUCAAAAAAUCGGUCUG [Fam1A.1 aminoacylation ribozyme variant]" recordedendpoint=self-aminoacylation experimentalvalue=1.02
itemsequence="AUUACCCUGGUCAUCGAAUAA [Fam2.1 aminoacylation ribozyme variant]" recordedendpoint=self-aminoacylation experimentalvalue=0.801
itemsequence="AAGUUUGCAAGUAGUCGCAAG [Fam3.1 aminoacylation ribozyme variant]" recordedendpoint=self-aminoacylation experimentalvalue=0.95
itemsequence="AUGUUUGCUAAUGGUCGCAAG [Fam3.1 aminoacylation ribozyme variant]" recordedendpoint=self-aminoacylation experimentalvalue=1.16
itemsequence="AUUACCCUGGUCGUCGCGUGA [Fam2.1 aminoacylation ribozyme variant]" recordedendpoint=self-aminoacylation experimentalvalue=3.98
itemsequence="AUCACCCUGGUCAUCGAGUGG [Fam2.1 aminoacylation ribozyme variant]" recordedendpoint=self-aminoacylation experimentalvalue=4.14
itemsequence="CCACUUCAAACAAUCGGUGUG [Fam1A.1 aminoacylation ribozyme variant]" recordedendpoint=self-aminoacylation experimentalvalue=1.13
itemsequence="AUUACCCUGGUCAUCGAUUGC [Fam2.1 aminoacylation ribozyme variant]" recordedendpoint=self-aminoacylation experimentalvalue=1.15

* * *

System: biotinyl-Phe-oxazolone
Test: self-aminoacylation, catalytic enhancement (BFO) (fold over background); higher = more active; k-Seq, kA / k0A0; sequences stand for … in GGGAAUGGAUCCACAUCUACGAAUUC…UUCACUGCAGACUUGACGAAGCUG
Variants at the floor of the assay were thinned out.
This listing pairs sequences with measured self-aminoacylation.
recordedEndpoint: self-aminoacylation

itemsequence="CUACUUCGAACAAUCGGUCCG [Fam1A.1 aminoacylation ribozyme variant]" systemundertest=biotinyl-Phe-oxazolone experimentalvalue=2.05
itemsequence="AUUCCCCUAGGUCCUCGGGUG [Fam2.2 aminoacylation ribozyme variant]" systemundertest=biotinyl-Phe-oxazolone experimentalvalue=241
itemsequence="AUUACCCUAGGCAUCGAGUGA [Fam2.1 aminoacylation ribozyme variant]" systemundertest=biotinyl-Phe-oxazolone experimentalvalue=18.1
itemsequence="AUUCACUUAGGUCAUGGGGUG [Fam2.2 aminoacylation ribozyme variant]" systemundertest=biotinyl-Phe-oxazolone experimentalvalue=46.2
itemsequence="ACACACUUAAAGCAAUCGGUC [Fam1B.1 aminoacylation ribozyme variant]" systemundertest=biotinyl-Phe-oxazolone experimentalvalue=1.23
itemsequence="CCUCAUUUCAAGCAAUCGGUC [Fam1B.1 aminoacylation ribozyme variant]" systemundertest=biotinyl-Phe-oxazolone experimentalvalue=5.96
itemsequence="CUAAUUCAAACAAUCGGUCUU [Fam1A.1 aminoacylation ribozyme variant]" systemundertest=biotinyl-Phe-oxazolone experimentalvalue=2.49
itemsequence="CUACUUCACACAGUCGGUCUG [Fam1A.1 aminoacylation ribozyme variant]" systemundertest=biotinyl-Phe-oxazolone experimentalvalue=0.389
itemsequence="CCACUUCAAACAAUCGGCCUG [Fam1A.1 aminoacylation ribozyme variant]" systemundertest=biotinyl-Phe-oxazolone experimentalvalue=425
itemsequence="AUCACCCUGCUCAUCGAGUGA [Fam2.1 aminoacylation ribozyme variant]" systemundertest=biotinyl-Phe-oxazolone experimentalvalue=19.1
itemsequence="CCCCACUUCAAGCAAUCGUUC [Fam1B.1 aminoacylation ribozyme variant]" systemundertest=biotinyl-Phe-oxazolone experimentalvalue=1.77
itemsequence="CCACACUUCAAGCUCUCGGUC [Fam1B.1 aminoacylation ribozyme variant]" systemundertest=biotinyl-Phe-oxazolone experimentalvalue=0.716
itemsequence="AAGUAUACUAAUAGUCGCAAG [Fam3.1 aminoacylation ribozyme variant]" systemundertest=biotinyl-Phe-oxazolone experimentalvalue=2.34
itemsequence="CUACUUCAAACAAUCGGGCUU [Fam1A.1 aminoacylation ribozyme variant]" systemundertest=biotinyl-Phe-oxazolone experimentalvalue=1.14
itemsequence="AUUUCCCUGGUCAUUGAGUGA [Fam2.1 aminoacylation ribozyme variant]" systemundertest=biotinyl-Phe-oxazolone experimentalvalue=63.1
itemsequence="UUGUUUGCUAAUAGUCGCAAG [Fam3.1 aminoacylation ribozyme variant]" systemundertest=biotinyl-Phe-oxazolone experimentalvalue=9.39
itemsequence="AAGUUUGCUAGUUGUCGCAAG [Fam3.1 aminoacylation ribozyme variant]" systemundertest=biotinyl-Phe-oxazolone experimentalvalue=3.68
itemsequence="CUACUGCAAACAAUCGGUGUG [Fam1A.1 aminoacylation ribozyme variant]" systemundertest=biotinyl-Phe-oxazolone experimentalvalue=3.44
